Measured EC50 of individual entries
# EXPERIMENTAL SYSTEM: human muscarinic M4 receptor (Homo sapiens)
# Construct: expressed in transfected cells
# Sequence (P08173 1-479): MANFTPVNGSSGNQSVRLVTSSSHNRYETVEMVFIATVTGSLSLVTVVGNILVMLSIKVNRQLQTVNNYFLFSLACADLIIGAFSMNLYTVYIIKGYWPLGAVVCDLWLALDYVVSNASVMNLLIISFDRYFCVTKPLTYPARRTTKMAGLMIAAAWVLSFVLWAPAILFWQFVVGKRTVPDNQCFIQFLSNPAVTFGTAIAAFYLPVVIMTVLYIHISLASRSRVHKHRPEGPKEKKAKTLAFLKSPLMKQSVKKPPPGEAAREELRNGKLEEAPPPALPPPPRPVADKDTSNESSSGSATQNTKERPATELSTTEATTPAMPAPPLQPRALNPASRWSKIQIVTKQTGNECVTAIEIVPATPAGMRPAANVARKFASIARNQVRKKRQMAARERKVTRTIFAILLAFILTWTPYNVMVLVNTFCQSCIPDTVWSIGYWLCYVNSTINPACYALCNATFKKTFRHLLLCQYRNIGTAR
# ASSAY NOTES: Alphascreen Surefire phospho-ERK1/2 functional assay, M4
# Format: cell-based
# MEASUREMENT CONTEXT: CHO cells stably expressing human M4; phospho-ERK1/2; read-out: pEC50 M4 (converted)

{"COMPOUND": "CCOC(=O)N1CC2(CC(N3CCC4(CC3)CNC(=O)C4)C2)C1", "DISPLAY UNIT": "nM", "BOUND TYPE": ">", "EC50": 20000}
{"COMPOUND": "CCOC(=O)N1CCC2(CC(N3CCC4(CC3)OC(=O)N(CC(C)C)C4(C)C)C2)C1 (single isomer, unassigned) [4-38 Isomer 2]", "DISPLAY UNIT": "nM", "BOUND TYPE": "=", "EC50": 31.6}
{"COMPOUND": "CCOC(=O)N1CCC2(CC(N3CCC4(CC3)OC(=O)N(C3CC3)C4CC)C2)C1 (mixture of isomers) [4-47 mixture of diastereomers]", "DISPLAY UNIT": "nM", "BOUND TYPE": "=", "EC50": 63.1}
{"COMPOUND": "CCOC(=O)N1CCC2(CC(N3CCC4(CC3)OC(=O)N(CC)C4CC)C2)C1 (single isomer, unassigned) [4-22 Isomer 2]", "DISPLAY UNIT": "nM", "BOUND TYPE": ">", "EC50": 20000}
{"COMPOUND": "CCOC(=O)N1CCC2(CC(N3CCC4(CC3)OC(=O)N(CC3CC3)C4(C)C)C2)C1 (single isomer, unassigned) [4-39 Isomer 2]", "DISPLAY UNIT": "nM", "BOUND TYPE": "=", "EC50": 63.1}
{"COMPOUND": "CCOC(=O)N1CC2(CC(N3CCC4(CC3)OC(=O)N3CCCC34)C2)C1 (stereo not shown)", "DISPLAY UNIT": "nM", "BOUND TYPE": "=", "EC50": 126}
{"COMPOUND": "CCOC(=O)N1CC2(CCC(N3CCC4(CC3)CNC(=O)C4)C2)C1 (racemic) [7-1 racemic]", "DISPLAY UNIT": "nM", "BOUND TYPE": ">", "EC50": 20000}

----------
Measured Emax of individual entries
# EXPERIMENTAL SYSTEM: human muscarinic M4 receptor (Homo sapiens)
# Construct: expressed in transfected cells
# ASSAY NOTES: Alphascreen Surefire phospho-ERK1/2 functional assay, M4
# Assay type: cell-based
# MEASUREMENT CONTEXT: CHO, read-out: M4 % Emax cf. ACh, CHO cells stably expressing human M4; Emax relative to ACh

{"COMPOUND": "COC(=O)N1CCC2(CC(N3CCC4(CC3)OC(=O)N3CCCC34)C2)C1 (single isomer, unassigned) [4-45 Isomer 2]", "Emax / %": 36}
{"COMPOUND": "COC(=O)N1CCC2(CC(N3CCC4(CC3)CNC(=O)C4)C2)C1 (single isomer, unassigned) [3-1 Isomer 2]", "Emax / %": 50}
{"COMPOUND": "CCOC(=O)N1CCC2(CC(N3CCC4(CC3)OC(=O)NC4Cc3ccccn3)C2)C1 (single isomer, unassigned) [4-19 Isomer 2 (racemic)]", "Emax / %": 72}
{"COMPOUND": "CCCN1C(=O)OC2(CCN(C3CC4(CCN(C(=O)OC)C4)C3)CC2)C1(C)C (single isomer, unassigned) [4-36 Isomer 2]", "Emax / %": 106}
{"COMPOUND": "CCOC(=O)N1CCC2(CC(N3CCC4(CC3)OC(=O)N(CC(C)C)C4CC)C2)C1 (single isomer, unassigned) [4-24 Isomer 2 (racemic)]", "Emax / %": 84}

----------
# EXPERIMENTAL SYSTEM: human muscarinic M1 receptor (Homo sapiens, UniProt P11229)
# Construct: expressed in transfected cells
# Sequence (P11229 whole entry): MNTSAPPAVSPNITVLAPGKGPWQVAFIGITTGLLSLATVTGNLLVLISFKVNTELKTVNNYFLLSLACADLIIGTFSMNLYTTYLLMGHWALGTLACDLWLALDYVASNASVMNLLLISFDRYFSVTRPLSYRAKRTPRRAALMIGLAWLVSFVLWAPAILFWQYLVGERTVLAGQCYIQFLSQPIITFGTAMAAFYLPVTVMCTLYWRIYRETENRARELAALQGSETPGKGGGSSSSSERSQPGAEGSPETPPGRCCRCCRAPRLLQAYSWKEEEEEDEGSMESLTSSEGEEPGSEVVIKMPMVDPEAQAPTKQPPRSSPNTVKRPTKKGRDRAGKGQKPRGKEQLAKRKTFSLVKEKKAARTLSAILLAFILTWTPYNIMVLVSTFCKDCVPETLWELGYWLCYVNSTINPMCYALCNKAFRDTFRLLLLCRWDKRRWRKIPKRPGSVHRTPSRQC
# ASSAY NOTES: Alphascreen Surefire phospho-ERK1/2 functional assay, M1
# Format: cell-based
# MEASUREMENT CONTEXT: CHO, read-out: M1 % Emax cf. ACh, CHO cells stably expressing human M1; Emax relative to ACh
Measured Emax of individual entries

{"MOLECULE": "CCOC(=O)N1CCC2(CC(N3CCC4(CC3)OC(=O)NC4C)C2)C1 (single isomer, unassigned) [4-11 Isomer 2]", "Emax, %": 114}
{"MOLECULE": "CCOC(=O)N1CC2(CC(N3CCC4(CC3)OC(=O)NC4CC)C2)C1 (single isomer, unassigned) [2-1 Isomer 2]", "Emax, %": 106}
{"MOLECULE": "CCOC(=O)N1CCC2(CC(N3CCC4(CC3)CC(=O)NN4C(C)C)C2)C1 (single isomer, unassigned) [6-5 Isomer 2]", "Emax, %": 56}
{"MOLECULE": "CCOC(=O)N1CC2(CCC(N3CCC4(CC3)OC(=O)N(CC)C4CC)C2)C1 (mixture of isomers) [8-2 mixture of diastereomers]", "Emax, %": 65}
{"MOLECULE": "CCC1N(CC)C(=O)OC12CCN(C1CC3(CCN(C(=O)OC)C3)C1)CC2 (single isomer, unassigned) [4-21 Isomer 2 (racemic)]", "Emax, %": 77}
{"MOLECULE": "CCOC(=O)N1CC2(CC(N3CCC4(CC3)CNC(=O)C4)C2)C1", "Emax, %": 107}
{"MOLECULE": "CCOC(=O)N1CCC2(CC(N3CCC4(CC3)OC(=O)N(C3CC3)C4CC)C2)C1 (mixture of isomers) [4-47 mixture of diastereomers]", "Emax, %": 86}
{"MOLECULE": "COC(=O)N1CCC2(CC(N3CCC4(CC3)CNC(=O)C4)C2)C1 (single isomer, unassigned) [3-1 Isomer 2]", "Emax, %": 87}
{"MOLECULE": "CCOC(=O)N1CCC2(CC(N3CCC4(CC3)OC(=O)N(CC3CC3)C4(C)C)C2)C1 (single isomer, unassigned) [4-39 Isomer 2]", "Emax, %": 56}
{"MOLECULE": "COC(=O)N1CCC2(CC(N3CCC4(CC3)OC(=O)N3CCCC34)C2)C1 (single isomer, unassigned) [4-45 Isomer 2]", "Emax, %": 59}
{"MOLECULE": "CCOC(=O)N1CCC2(CC(N3CCC4(CC3)CN(CC(C)C)C(=O)O4)C2)C1 (single isomer, unassigned) [4-9 Isomer 2]", "Emax, %": 104}
{"MOLECULE": "CC(C)OC(=O)N1CCC2(CC(N3CCC4(CC3)CNC(=O)O4)C2)C1 (single isomer, unassigned) [4-4 Isomer 2]", "Emax, %": 52}
{"MOLECULE": "CCOC(=O)N1CCC2(CC(N3CCC4(CC3)OC(=O)N(CC(C)C)C4CC)C2)C1 (single isomer, unassigned) [4-24 Isomer 2 (racemic)]", "Emax, %": 84}
{"MOLECULE": "CCOC(=O)N1CCC2(CC(N3CCC4(CC3)OC(=O)NC4C3CCC3)C2)C1 (single isomer, unassigned) [4-15 Isomer 1 (racemic)]", "Emax, %": 85}
{"MOLECULE": "COC(=O)N1CCC2(CC(N3CCC4(CC3)CC(=O)NC4Cc3ccccc3)C2)C1 (single isomer, unassigned) [3-7 Isomer 2]", "Emax, %": 101}
{"MOLECULE": "CCCN1NC(=O)CC12CCN(C1CC3(CCN(C(=O)OCC)C3)C1)CC2 (single isomer, unassigned) [6-4 Isomer 2]", "Emax, %": 89}
{"MOLECULE": "CCOC(=O)N1CCC2(CC(N3CCC4(CC3)OC(=O)N(CC3CC3)C4CC)C2)C1 (single isomer, unassigned) [4-25 Isomer 2 (racemic)]", "Emax, %": 73}

----------
# EXPERIMENTAL SYSTEM: human muscarinic M4 receptor (Homo sapiens)
# Construct: expressed in transfected cells
# Sequence (P08173 1-479): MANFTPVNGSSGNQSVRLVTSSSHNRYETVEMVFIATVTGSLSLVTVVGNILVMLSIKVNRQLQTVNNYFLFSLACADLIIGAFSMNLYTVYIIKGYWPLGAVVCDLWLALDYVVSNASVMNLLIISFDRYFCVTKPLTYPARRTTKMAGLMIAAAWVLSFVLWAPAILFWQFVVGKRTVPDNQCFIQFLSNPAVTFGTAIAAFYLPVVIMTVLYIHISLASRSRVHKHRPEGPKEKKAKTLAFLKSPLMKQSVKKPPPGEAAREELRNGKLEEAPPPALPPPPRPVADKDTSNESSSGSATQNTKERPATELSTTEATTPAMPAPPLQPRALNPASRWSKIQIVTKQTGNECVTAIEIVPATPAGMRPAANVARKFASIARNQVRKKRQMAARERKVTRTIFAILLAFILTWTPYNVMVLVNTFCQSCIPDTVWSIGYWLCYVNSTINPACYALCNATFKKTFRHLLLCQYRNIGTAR
# ASSAY NOTES: Alphascreen Surefire phospho-ERK1/2 functional assay, M4
# Type: cell-based
# MEASUREMENT CONTEXT: CHO cells stably expressing human M4; phospho-ERK1/2; read-out: pEC50 M4 (converted)
PROPERTY: EC50 (µM)

{"MOLECULE": "CCOC(=O)N1CCC2(CC(N3CCC4(CC3)OC(=O)N(OC)C4CC)C2)C1 (mixture of isomers) [4-48 mixture of diastereomers]", "EXPERIMENTAL SYSTEM": "human muscarinic M4 receptor (Homo sapiens)", "MEASURED NUMBER": 0.1}
{"MOLECULE": "CCOC(=O)N1CCC2(CC(N3CCC4(CC3)OC(=O)N(CCOC)C4(C)C)C2)C1 (single isomer, unassigned) [4-41 Isomer 2]", "EXPERIMENTAL SYSTEM": "human muscarinic M4 receptor (Homo sapiens)", "MEASURED NUMBER": 0.1}
{"MOLECULE": "CCN1C(=O)OC2(CCN(C3CC4(CCN(C(=O)OC)C4)C3)CC2)C1(C)C (single isomer, unassigned) [4-34 Isomer 2]", "EXPERIMENTAL SYSTEM": "human muscarinic M4 receptor (Homo sapiens)", "MEASURED NUMBER": 0.1}
